These data points were gathered from paper PMC4232785.

Assay: RP-HPTLC retention (RM0, lipophilicity parameter) on RP-18W/UV254 plates
Type: physicochemical
Settings: RP-18W/UV254, tetrahydrofuran - water (φ = 0.5 - 0.75)
Procedure: Precoated RP-18W/UV254 plates (Macherey-Nagel GmbH and Co., Düren, Germany) were used for RP HPTLC analysis. […] The investigated compounds were dissolved in an appropriate solvent, methanol, 1 mg mL^-1) and the solutions (0.2 μL) were separately spotted into the plates. […] RF values were calculated as average from three measurements for each solute-mobile phase combination. For subsequent calculations mean RM values were used; these were calculated by using the formula: […]
MEASURED ATTRIBUTE: RM^0 (retention parameter, intercept at φ = 0% modifier)

Examples from the recorded data:
COMPOUND	VAL
Clc1nc(N(c2ccccc2)C2CCCCC2)nc(N(c2ccccc2)C2CCCCC2)n1 [III.4]	3.902
CC1(Nc2nc(Cl)nc(Cl)n2)CCCC1 [IV.1]	1.733

A: CC1(Nc2nc(Cl)nc(NC3(C)CCCCC3)n2)CCCCC1 [II.2]
B: CC1(Nc2nc(Cl)nc(Cl)n2)CCCCCC1 [IV.3]
In: Returns the identifier with the smallest measured RM^0 (retention parameter, intercept at φ = 0% modifier) among A and B . Respond with the label that goes with your answer.
Out: B

* * *

test: RP-HPTLC retention (RM0, lipophilicity parameter) on RP-18W/UV254 plates; type: physicochemical; details: RP-18W/UV254, methanol – water (φ = 0.65 - 0.95)
MEASURED ATTRIBUTE: RM^0 (retention parameter, intercept at φ = 0% modifier)

COMPOUND	VAL
CN(c1nc(Cl)nc(N(C)C2CCCCC2)n1)C1CCCCC1 [III.2]	3.998
CC1(Nc2nc(Cl)nc(NC3(C)CCCCC3)n2)CCCCC1 [II.2]	3.320
CC1(Nc2nc(Cl)nc(NC3(C)CCCC3)n2)CCCC1 [II.1]	3.181
CC(Nc1nc(Cl)nc(NC(C)c2ccc(Br)cc2)n1)c1ccc(Br)cc1 (centres unmarked) [I.4]	4.407
Clc1nc(NC2CCCCC2)nc(NC2CCCCC2)n1 [III.1]	3.440

* * *

experiment: RP-HPTLC retention (RM0, lipophilicity parameter) on RP-18W/UV254 plates; format: physicochemical; conditions: RP-18W/UV254, acetone – water (φ = 0.5 - 0.8)
MEASURED ATTRIBUTE: RM^0 (retention parameter, intercept at φ = 0% modifier)

MOLECULE	VAL
Cc1ccc(C(C)Nc2nc(Cl)nc(NC(C)c3ccc(C)cc3)n2)cc1 (stereo not drawn)	3.580
CC1(Nc2nc(Cl)nc(NC3(C)CCCC3)n2)CCCC1	3.743
Clc1nc(NC2CCCCC2)nc(N(c2ccccc2)C2CCCCC2)n1	4.019

* * *

assay: RP-HPTLC retention (RM0, lipophilicity parameter) on RP-18W/UV254 plates; type: physicochemical; conditions: RP-18W/UV254, tetrahydrofuran - water (φ = 0.5 - 0.75)
MEASURED ATTRIBUTE: RM^0 (retention parameter, intercept at φ = 0% modifier)

MOLECULE	VAL
CC1(Nc2nc(Cl)nc(NC3(C)CCCC3)n2)CCCC1	3.289
CC(Nc1nc(Cl)nc(NC(C)c2ccc(Br)cc2)n1)c1ccc(Br)cc1 (stereo not drawn)	3.351
CC(Nc1nc(Cl)nc(NC(C)c2ccc(Cl)cc2)n1)c1ccc(Cl)cc1 (stereo not drawn)	3.538
CC(Nc1nc(Cl)nc(NC(C)c2ccccc2)n1)c1ccccc1 (stereo not drawn)	3.439
Clc1nc(NC2CCCCC2)nc(NC2CCCCC2)n1	3.426
Cc1ccc(C(C)Nc2nc(Cl)nc(NC(C)c3ccc(C)cc3)n2)cc1 (stereo not drawn)	3.567
